- target: Epidermal growth factor receptor (Homo sapiens)
- assay.info: Inhibition of polyGAT phosphorylation
As shown below, each of these compounds has a reported IC50 value.
# value in nM; strip the unit string

compound: COc1ccc(CCNC(=O)/C(C#N)=C/c2ccc(O)c(O)c2)cc1OC
numeric.result: 1700
--
compound: N#C/C(=C\c1ccc(O)c(O)c1)C(=O)c1ccccc1
numeric.result: 1300
--
compound: N#C/C(=C\c1ccc(O)c(O)c1)C(=O)NC1CCCCC1
numeric.result: 1600
--
compound: COc1cc2c(cc1O)NC(=O)C2=C(C#N)C#N
numeric.result: 60000

Let us examine a further case.
The reported IC50 of the compound CC(NC(=O)/C(C#N)=C/c1ccc(O)c(O)c1)c1ccccc1 (stereo in doubt; 44) was 400

====

- target: Epidermal growth factor receptor (Homo sapiens, UniProt P00533)
- Sequence (P00533 whole entry): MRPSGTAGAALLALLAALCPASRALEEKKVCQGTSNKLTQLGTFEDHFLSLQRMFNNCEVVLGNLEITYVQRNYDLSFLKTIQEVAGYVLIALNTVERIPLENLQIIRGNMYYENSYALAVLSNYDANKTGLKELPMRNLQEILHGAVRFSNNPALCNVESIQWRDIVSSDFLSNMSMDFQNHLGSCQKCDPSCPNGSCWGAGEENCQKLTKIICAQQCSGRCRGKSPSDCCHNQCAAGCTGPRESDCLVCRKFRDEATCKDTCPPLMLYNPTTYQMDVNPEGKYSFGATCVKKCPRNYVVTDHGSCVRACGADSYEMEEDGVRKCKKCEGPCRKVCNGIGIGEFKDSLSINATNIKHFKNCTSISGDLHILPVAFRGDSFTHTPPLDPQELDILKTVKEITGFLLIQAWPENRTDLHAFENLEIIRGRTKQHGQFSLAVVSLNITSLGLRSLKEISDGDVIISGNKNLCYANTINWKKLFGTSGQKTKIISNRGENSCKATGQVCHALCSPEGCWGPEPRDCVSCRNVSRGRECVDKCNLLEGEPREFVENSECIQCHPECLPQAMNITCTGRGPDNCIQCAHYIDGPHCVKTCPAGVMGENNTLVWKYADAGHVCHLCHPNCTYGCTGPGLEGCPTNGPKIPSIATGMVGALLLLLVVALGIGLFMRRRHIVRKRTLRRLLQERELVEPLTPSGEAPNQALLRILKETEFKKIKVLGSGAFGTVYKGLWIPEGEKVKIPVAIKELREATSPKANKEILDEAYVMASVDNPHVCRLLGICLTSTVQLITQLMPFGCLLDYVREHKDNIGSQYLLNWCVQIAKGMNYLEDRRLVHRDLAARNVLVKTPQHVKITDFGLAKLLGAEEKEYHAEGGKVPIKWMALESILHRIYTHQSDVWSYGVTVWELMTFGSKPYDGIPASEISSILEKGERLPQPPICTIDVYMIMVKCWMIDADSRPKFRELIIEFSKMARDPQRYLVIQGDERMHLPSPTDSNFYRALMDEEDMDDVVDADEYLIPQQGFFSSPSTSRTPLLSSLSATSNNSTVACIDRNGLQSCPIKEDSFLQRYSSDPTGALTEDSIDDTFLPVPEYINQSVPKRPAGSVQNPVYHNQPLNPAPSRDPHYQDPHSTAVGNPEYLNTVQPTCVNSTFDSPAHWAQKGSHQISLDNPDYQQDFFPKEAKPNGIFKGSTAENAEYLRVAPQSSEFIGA
- assay.info: In vitro inhibition of HER1 autophosphorylation.
readout.kind: log10 of IC50 (log10 of the value in µM)
In plain terms, each number is the log10 of measured IC50 in µM.

// known answers, use as guide
molecule: Cc1cc(C)c(C(=O)/C(C#N)=C/c2ccc(O)c(O)c2)c(C)c1
numeric.result: 1.38
//
molecule: Cc1cccc(C)c1NC(=O)/C(C#N)=C/c1ccc(O)c(O)c1
numeric.result: 1.01

The reported log10 of IC50 of the molecule CCOC(=O)C(Cc1ccccc1)NC(=O)/C(C#N)=C/c1ccc(O)c(O)c1 (configuration not stated) was 1.69

The reported log10 of IC50 of the molecule N#C/C(=C\c1ccc(O)c(O)c1)C(=O)NCCCc1ccccc1 was -0.15

The reported log10 of IC50 of the molecule N#C/C(=C\c1ccc(O)c(O)c1)C(N)=O was 0.65

The reported log10 of IC50 of the molecule N#C/C(=C\c1ccc(O)c(O)c1)C(=O)N1CCN(c2ccccc2)CC1 was 1.74

The reported log10 of IC50 of the molecule CC(NC(=O)/C(C#N)=C/c1ccc(O)c(O)c1)c1ccccc1 (stereo in doubt; 44) was 0.40

====

As shown below, each of these molecules has a reported log10 of IC50 value.
- target: Epidermal growth factor receptor (Homo sapiens, UniProt P00533)
- assay.info: Inhibition of polyGAT phosphorylation
In plain terms, each number is the log10 of measured IC50 in µM.

// known answers, use as guide
molecule: CC(NC(=O)/C(C#N)=C/c1ccc(O)c(O)c1)c1ccccc1 (stereo in doubt; 50)
target: Epidermal growth factor receptor (Homo sapiens, UniProt P00533)
log10 of IC50: -0.07
//
molecule: N#C/C(=C\c1ccc(O)c(O)c1)C(=O)NCCCCc1ccccc1
target: Epidermal growth factor receptor (Homo sapiens, UniProt P00533)
log10 of IC50: 0.04
//
molecule: N#CC(C#N)=Cc1cccnc1
target: Epidermal growth factor receptor (Homo sapiens, UniProt P00533)
log10 of IC50: 2.35

The reported log10 of IC50 of the molecule CN1C(=O)C(=C(C#N)C#N)c2cc(O)ccc21 was 1.41

The reported log10 of IC50 of the molecule N#C/C(=C\c1ccc(O)c(O)c1)C(=O)N1CCN(c2ccccc2)CC1 was 0.63

The reported log10 of IC50 of the molecule N#CC(C#N)=Cc1ccc(C#N)cc1 was 3.15

The reported log10 of IC50 of the molecule N#CC(C#N)=C1CCc2cc(O)c(O)cc21 was -0.30

The reported log10 of IC50 of the molecule COc1ccc(C=C(C#N)C#N)cc1F was 2.90

The reported log10 of IC50 of the molecule N#C/C(=C\c1ccc(O)c(O)c1)C(=O)c1ccc([N+](=O)[O-])cc1 was 0.36

The reported log10 of IC50 of the molecule N#CC(C#N)=C(N)/C(C#N)=C/c1ccc2[nH]ccc2c1 was 2.91

The reported log10 of IC50 of the molecule CCOC(=O)C(Cc1ccccc1)NC(=O)/C(C#N)=C/c1ccc(O)c(O)c1 (stereo not given) was 0.18

The reported log10 of IC50 of the molecule N#C/C(=C\c1ccc(O)c(O)c1)C(=O)c1cccs1 was 0.49

====

- target: Receptor tyrosine-protein kinase erbB-2 (Homo sapiens)
- Sequence (P04626 whole entry): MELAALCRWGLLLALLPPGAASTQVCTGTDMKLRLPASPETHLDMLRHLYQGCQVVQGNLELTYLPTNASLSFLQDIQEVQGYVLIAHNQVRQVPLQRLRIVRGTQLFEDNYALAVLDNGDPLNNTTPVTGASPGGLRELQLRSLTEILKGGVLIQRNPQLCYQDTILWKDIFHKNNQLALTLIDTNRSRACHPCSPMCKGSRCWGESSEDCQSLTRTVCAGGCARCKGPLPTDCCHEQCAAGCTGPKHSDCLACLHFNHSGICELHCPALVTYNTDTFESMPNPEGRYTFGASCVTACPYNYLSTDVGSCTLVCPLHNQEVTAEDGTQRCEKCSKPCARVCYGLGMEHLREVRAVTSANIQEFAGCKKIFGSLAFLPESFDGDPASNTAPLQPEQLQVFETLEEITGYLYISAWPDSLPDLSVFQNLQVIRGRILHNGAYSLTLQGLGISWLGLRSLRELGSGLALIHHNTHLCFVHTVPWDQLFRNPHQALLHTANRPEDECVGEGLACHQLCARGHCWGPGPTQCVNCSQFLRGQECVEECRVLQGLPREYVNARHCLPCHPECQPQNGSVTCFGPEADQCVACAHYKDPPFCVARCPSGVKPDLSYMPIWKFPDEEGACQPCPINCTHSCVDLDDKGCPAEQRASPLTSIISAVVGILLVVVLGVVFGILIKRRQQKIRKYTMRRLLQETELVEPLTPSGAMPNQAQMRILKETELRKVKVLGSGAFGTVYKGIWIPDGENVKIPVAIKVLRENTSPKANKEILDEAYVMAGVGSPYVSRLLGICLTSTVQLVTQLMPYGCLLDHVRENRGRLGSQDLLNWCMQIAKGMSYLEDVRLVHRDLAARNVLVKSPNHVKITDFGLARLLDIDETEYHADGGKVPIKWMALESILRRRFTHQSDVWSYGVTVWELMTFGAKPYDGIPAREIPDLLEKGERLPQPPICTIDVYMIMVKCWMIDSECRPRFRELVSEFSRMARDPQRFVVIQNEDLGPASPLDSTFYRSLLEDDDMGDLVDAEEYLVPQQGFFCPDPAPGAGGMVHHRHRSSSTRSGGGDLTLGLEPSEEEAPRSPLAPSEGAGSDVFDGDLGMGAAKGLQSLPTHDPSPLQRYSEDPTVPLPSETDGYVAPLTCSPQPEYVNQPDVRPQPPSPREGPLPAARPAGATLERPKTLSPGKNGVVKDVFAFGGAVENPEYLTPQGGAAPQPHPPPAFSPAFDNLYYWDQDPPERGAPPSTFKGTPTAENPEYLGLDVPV
readout.kind: pIC50
For clarity, pIC50 is expressed as the negative log10 of concentration in mol/L.

// known answers, use as guide
molecule: Cc1ccc(C(=O)/C(C#N)=C/c2ccc(O)c(O)c2)cc1
target: Receptor tyrosine-protein kinase erbB-2 (Homo sapiens)
numeric.result: 5.00
//
molecule: N#C/C(=C\c1ccc(O)c(O)c1)C(N)=O
target: Receptor tyrosine-protein kinase erbB-2 (Homo sapiens)
numeric.result: 5.19
//
molecule: N#C/C(=C\c1ccc(O)c(O)c1)C(=O)c1ccc([N+](=O)[O-])cc1
target: Receptor tyrosine-protein kinase erbB-2 (Homo sapiens)
numeric.result: 5.52

Let us examine a further case.
For N#C/C(=C\c1ccc(O)c(O)c1)C(=O)NCc1ccccc1 on Receptor tyrosine-protein kinase erbB-2 (Homo sapiens), measured pIC50 was 4.87

====

- target: Epidermal growth factor receptor (Homo sapiens)
- assay.info: Inhibition of polyGAT phosphorylation
pIC50: −log10 of the molar value.
Binary call on pIC50: t from 5 upward, f beneath that.

Completed entries (count: 3):
compound: N#C/C(=C\c1ccc(O)c(O)c1)C(=O)N1CCc2ccccc21
assigned.label: t

compound: N#CC(C#N)=C1CCCc2c(O)cccc21
assigned.label: f

compound: C[S+]([O-])c1ccc(C=C(C#N)C#N)cc1 (stereo not drawn)
assigned.label: f

Next compound, please.
Check if pIC50 >= 5 (inclusive). Item: Cc1cccc(C)c1NC(=O)/C(C#N)=C/c1ccc(O)c(O)c1
t

====

- target: Epidermal growth factor receptor (Homo sapiens)
- assay.info: Inhibition of polyGAT phosphorylation
readout.kind: log10(IC50) (log10 of the value in µM)
In plain terms, each number is the log10 of measured IC50 in µM.

smiles.structure: N#CC(C#N)=C1CCc2c1ccc(O)c2O
log10(IC50): 0.85

The reported log10(IC50) of the molecule Cc1ccc(C(=O)/C(C#N)=C/c2ccc(O)c(O)c2)cc1 was -0.06

The reported log10(IC50) of the molecule N#C/C(=C\c1ccc(O)c(O)c1)C(=O)NCCCc1ccccc1 was -0.15

The reported log10(IC50) of the molecule N#C/C(=C\c1ccc(O)c(O)c1)C(=O)Nc1ccccc1Cl was 0.04

The reported log10(IC50) of the molecule N#C/C(=C\c1ccc(O)c(O)c1)C(=O)c1ccccc1Cl was 0.19

The reported log10(IC50) of the molecule N#CC(C#N)=C1C(=O)Nc2ccc([N+](=O)[O-])cc21 was 1.60

The reported log10(IC50) of the molecule N#CC(C#N)=C1C(=O)Nc2cc(O)c(O)cc21 was 0.40

The reported log10(IC50) of the molecule N#C/C(=C\c1ccc(O)c(O)c1)C(=O)c1ccc(O)c(O)c1 was -0.43

The reported log10(IC50) of the molecule N#CC(C#N)=C1C(=O)Nc2ccc(O)cc21 was 1.10

====

Assay system Receptor tyrosine-protein kinase erbB-2 (Homo sapiens); read-out recorded as IC50.
# value in µM; strip the unit string

// known answers, use as guide
compound: N#C/C(=C\c1ccc(O)c(O)c1)C(=O)c1cccs1
target: Receptor tyrosine-protein kinase erbB-2 (Homo sapiens)
readout.kind: IC50
numeric.result: 35
--
compound: N#C/C(=C\c1ccc(O)c(O)c1)C(=O)N1CCc2ccccc21
target: Receptor tyrosine-protein kinase erbB-2 (Homo sapiens)
readout.kind: IC50
numeric.result: 4.9
--
compound: Cc1cc(C)c(C(=O)/C(C#N)=C/c2ccc(O)c(O)c2)c(C)c1
target: Receptor tyrosine-protein kinase erbB-2 (Homo sapiens)
readout.kind: IC50
numeric.result: 50
--
compound: N#C/C(=C\c1ccc(O)c(O)c1)C(=O)c1ccccc1
target: Receptor tyrosine-protein kinase erbB-2 (Homo sapiens)
readout.kind: IC50
numeric.result: 18
--
compound: N#C/C(=C\c1ccc(O)c(O)c1)C(=O)Nc1ccccc1
target: Receptor tyrosine-protein kinase erbB-2 (Homo sapiens)
readout.kind: IC50
numeric.result: 42
--
compound: N#C/C(=C\c1ccc(O)c(O)c1)C(=O)NCCCc1ccccc1
target: Receptor tyrosine-protein kinase erbB-2 (Homo sapiens)
readout.kind: IC50
numeric.result: 35
--
compound: N#C/C(=C\c1ccc(O)c(O)c1)C(=O)c1ccc(O)c(O)c1
target: Receptor tyrosine-protein kinase erbB-2 (Homo sapiens)
readout.kind: IC50
numeric.result: 18
--
compound: N#C/C(=C\c1ccc(O)c(O)c1)C(=O)NC1CCCCC1
target: Receptor tyrosine-protein kinase erbB-2 (Homo sapiens)
readout.kind: IC50
numeric.result: 17
--
compound: N#C/C(=C\c1ccc(O)c(O)c1)C(=O)c1ccc(F)cc1
target: Receptor tyrosine-protein kinase erbB-2 (Homo sapiens)
readout.kind: IC50
numeric.result: 13.6
--
compound: Cc1cccc(C)c1NC(=O)/C(C#N)=C/c1ccc(O)c(O)c1
target: Receptor tyrosine-protein kinase erbB-2 (Homo sapiens)
readout.kind: IC50
numeric.result: 34

The reported IC50 of the compound N#C/C(=C\c1ccc(O)c(O)c1)C(=O)NCCc1ccccc1 was 23

The reported IC50 of the compound N#C/C(=C\c1ccc(O)c(O)c1)C(=O)Nc1ccccc1Cl was 57

The reported IC50 of the compound CC(NC(=O)/C(C#N)=C/c1ccc(O)c(O)c1)c1ccccc1 (stereo in doubt; 44) was 37

The reported IC50 of the compound N#C/C(=C\c1ccc(O)c(O)c1)C(=O)c1ccccc1Cl was 12

The reported IC50 of the compound N#C/C(=C\c1ccc(O)c(O)c1)C(=O)N1CCN(c2ccccc2)CC1 was 49
